Each recorded value in this set is attributed to patent US20230219979A1.

# experimental-system: VEGFR2 kinase (Homo sapiens, UniProt P35968)
# Sequence (P35968 20-1356): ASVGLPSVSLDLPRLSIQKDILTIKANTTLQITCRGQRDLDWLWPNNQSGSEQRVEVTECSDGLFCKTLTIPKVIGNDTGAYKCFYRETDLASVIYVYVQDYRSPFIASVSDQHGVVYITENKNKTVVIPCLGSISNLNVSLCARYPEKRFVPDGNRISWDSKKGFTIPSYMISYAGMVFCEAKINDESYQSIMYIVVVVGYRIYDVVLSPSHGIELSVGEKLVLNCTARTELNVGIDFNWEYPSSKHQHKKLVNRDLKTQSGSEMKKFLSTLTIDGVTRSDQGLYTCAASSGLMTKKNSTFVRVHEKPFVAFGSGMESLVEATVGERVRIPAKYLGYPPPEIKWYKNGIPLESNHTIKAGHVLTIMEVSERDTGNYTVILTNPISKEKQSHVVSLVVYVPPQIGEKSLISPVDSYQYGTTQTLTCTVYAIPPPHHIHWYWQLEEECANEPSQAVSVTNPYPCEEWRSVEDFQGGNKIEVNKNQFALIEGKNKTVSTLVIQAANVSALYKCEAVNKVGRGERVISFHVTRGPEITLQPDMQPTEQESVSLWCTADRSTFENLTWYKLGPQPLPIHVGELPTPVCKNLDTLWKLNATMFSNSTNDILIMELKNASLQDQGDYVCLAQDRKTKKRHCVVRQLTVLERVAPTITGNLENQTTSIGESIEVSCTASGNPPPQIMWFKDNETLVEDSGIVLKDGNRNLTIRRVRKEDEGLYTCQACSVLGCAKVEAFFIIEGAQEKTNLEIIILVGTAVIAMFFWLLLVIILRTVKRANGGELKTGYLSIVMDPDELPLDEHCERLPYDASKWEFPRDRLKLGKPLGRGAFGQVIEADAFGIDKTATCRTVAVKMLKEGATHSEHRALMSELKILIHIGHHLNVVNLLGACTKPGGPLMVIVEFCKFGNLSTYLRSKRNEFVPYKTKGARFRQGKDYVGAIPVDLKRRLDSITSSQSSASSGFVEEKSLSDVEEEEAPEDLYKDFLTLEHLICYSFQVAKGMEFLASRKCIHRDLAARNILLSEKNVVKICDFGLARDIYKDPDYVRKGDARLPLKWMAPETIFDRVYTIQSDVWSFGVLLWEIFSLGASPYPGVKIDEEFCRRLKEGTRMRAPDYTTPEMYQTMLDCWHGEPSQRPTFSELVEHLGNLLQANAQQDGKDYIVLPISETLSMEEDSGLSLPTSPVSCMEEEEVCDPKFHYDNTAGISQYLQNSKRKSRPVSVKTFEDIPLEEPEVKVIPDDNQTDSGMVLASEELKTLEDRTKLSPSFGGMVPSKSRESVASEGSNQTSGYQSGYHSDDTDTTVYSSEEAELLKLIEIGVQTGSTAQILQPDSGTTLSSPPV
# protocol-summary: HTRF method for testing the inhibitory activity of compounds against VEGFR2
# Type: biochemical
Listing of recorded pIC50 by entry.
pIC50 (log units): -log10 of the concentration in mol/L.

Example results:
>  <smiles-notation>
COc1ccc(CN2C3CC2CN(c2ccc(-c4cc(N(C)CCN(C)C)cn5ncc(C#N)c45)cn2)C3)cn1

>  <pIC50>
6.32

$$$$
>  <smiles-notation>
CCCCNc1cc(-c2ccc(N3CC4CC(C3)N4Cc3ccc(OC)nc3)nc2)c2c(C#N)cnn2c1

>  <pIC50>
7.22

$$$$
>  <smiles-notation>
CCCNc1cc(-c2ccc(N3CC4CC(C3)N4Cc3ccc(OC)nc3)nc2)c2c(C#N)cnn2c1

>  <pIC50>
7.50

$$$$

Let's switch to this compound now.
Value lookup for pIC50; key = COc1ccc(CN2C3CC2CN(c2cnc(-c4cc(N5CCOCC5)cn5ncc(C#N)c45)cn2)C3)cn1 6.50

---

# experimental-system: VEGFR2 kinase (Homo sapiens, UniProt P35968)
# protocol-summary: HTRF method for testing the inhibitory activity of compounds against VEGFR2
# Format: biochemical
pIC50: −log10 of the molar value.
Values of pIC50 greater than or equal to 7 map to Criterion met; values below map to Criterion not met.

Solved cases (4 shown):
>  <compound>
COc1ccc(CN2C3CC2CN(c2cnc(-c4cc(OCCN5CC6CCC5C6)cn5ncc(C#N)c45)cn2)C3)cn1 (centres unmarked)

>  <class>
Criterion not met

$$$$
>  <compound>
COc1ccc(CN2C3CC2CN(c2cnc(-c4cc(OCC(C)(C)C#N)cn5ncc(C#N)c45)cn2)C3)cn1

>  <class>
Criterion not met

$$$$
>  <compound>
COc1ccc(CN2C3CC2CN(c2ccc(-c4cc(NCC(C)C)cn5ncc(C#N)c45)cn2)C3)cn1

>  <class>
Criterion met

$$$$
>  <compound>
COc1ccc(CN2C3CC2CN(c2ccc(-c4cc(Br)cn5ncc(C#N)c45)cn2)C3)cn1

>  <class>
Criterion not met

$$$$

From here, focus on the item given below.
Does the compound COc1ccc(CN2C3CC2CN(c2ccc(-c4cc(N5CCOCC5)cn5ncc(C#N)c45)cn2)C3)cn1 have recorded pIC50 that is 7 or more? Criterion met

---

# experimental-system: UniProt P07949
# protocol-summary: HTRF method for testing the inhibitory activity of compounds against RET
# Type: biochemical
# condition-info: HTRF; read-out: Wild-type RET kinase
quantity: pIC50
pIC50 (log units): -log10 of the concentration in mol/L.

Example results:
>  <molecule>
COc1ccc(CN2C3CC2CN(c2cnc(-c4cc(OCCN5CC6CCCNC6C5)cn5ncc(C#N)c45)cn2)C3)cn1 (stereo not shown)

>  <pIC50>
9.49

$$$$
>  <molecule>
COc1ccc(CN2C3CC2CN(c2cnc(-c4cc(OCCN5CCC6(CCCNC6=O)CC5)cn5ncc(C#N)c45)cn2)C3)cn1

>  <pIC50>
8.51

$$$$

Let's switch to this molecule now.
Value lookup for pIC50; key = CCNc1cc(-c2cnc(N3CC4CC(C3)N4Cc3ccc(OC)nc3)cn2)c2c(C#N)cnn2c1 9.74

---

# experimental-system: RET G810R kinase (Homo sapiens, UniProt P07949, G810R)
# Sequence (P07949 29-1114 G810R): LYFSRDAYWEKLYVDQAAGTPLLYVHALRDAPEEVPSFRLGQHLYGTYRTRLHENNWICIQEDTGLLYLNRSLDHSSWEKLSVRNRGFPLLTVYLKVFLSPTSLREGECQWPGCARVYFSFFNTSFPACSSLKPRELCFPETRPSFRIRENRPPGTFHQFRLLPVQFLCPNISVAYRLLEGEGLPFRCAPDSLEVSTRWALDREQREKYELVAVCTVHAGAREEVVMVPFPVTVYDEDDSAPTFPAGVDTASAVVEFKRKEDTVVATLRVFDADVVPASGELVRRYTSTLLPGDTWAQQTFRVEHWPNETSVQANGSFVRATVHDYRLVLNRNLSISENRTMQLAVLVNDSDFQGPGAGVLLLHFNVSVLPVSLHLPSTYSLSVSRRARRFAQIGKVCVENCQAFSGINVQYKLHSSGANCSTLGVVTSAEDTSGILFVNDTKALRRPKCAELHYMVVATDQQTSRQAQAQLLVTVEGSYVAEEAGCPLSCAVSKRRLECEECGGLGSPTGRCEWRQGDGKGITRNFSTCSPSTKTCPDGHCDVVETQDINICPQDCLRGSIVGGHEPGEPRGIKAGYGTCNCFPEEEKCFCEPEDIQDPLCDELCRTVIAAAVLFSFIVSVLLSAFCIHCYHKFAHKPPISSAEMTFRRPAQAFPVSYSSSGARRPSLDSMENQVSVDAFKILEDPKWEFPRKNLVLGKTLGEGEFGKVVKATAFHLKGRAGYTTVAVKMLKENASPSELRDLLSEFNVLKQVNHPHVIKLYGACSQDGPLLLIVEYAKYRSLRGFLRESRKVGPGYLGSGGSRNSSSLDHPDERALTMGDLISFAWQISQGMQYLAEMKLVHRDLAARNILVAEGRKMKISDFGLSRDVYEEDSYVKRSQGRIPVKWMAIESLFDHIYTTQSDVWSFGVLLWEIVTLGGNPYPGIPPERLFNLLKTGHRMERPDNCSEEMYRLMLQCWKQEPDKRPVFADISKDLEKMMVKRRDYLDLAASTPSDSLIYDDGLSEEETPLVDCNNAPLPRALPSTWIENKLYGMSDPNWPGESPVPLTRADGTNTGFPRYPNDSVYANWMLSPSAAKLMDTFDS
# protocol-summary: HTRF method for testing the inhibitory activity against RET G810R
# Assay type: biochemical
# condition-info: HTRF
Listing of recorded pIC50 by entry.
pIC50 (log units): -log10 of the concentration in mol/L.

Example results:
>  <compound>
COc1ccc(CN2C3CC2CN(c2ccc(-c4cc(NC(C)C)cn5ncc(C#N)c45)cn2)C3)cn1 [Compound 69]

>  <experimental-system>
RET G810R kinase (Homo sapiens, UniProt P07949, G810R)

>  <pIC50>
7.37

$$$$
>  <compound>
CCCCNc1cc(-c2ccc(N3CC4CC(C3)N4Cc3ccc(OC)nc3)nc2)c2c(C#N)cnn2c1 [Compound 68]

>  <experimental-system>
RET G810R kinase (Homo sapiens, UniProt P07949, G810R)

>  <pIC50>
7.31

$$$$
>  <compound>
COc1ccc(CN2C3CC2CN(c2ccc(-c4cc(NCC(F)F)cn5ncc(C#N)c45)cn2)C3)cn1 [Compound 50]

>  <experimental-system>
RET G810R kinase (Homo sapiens, UniProt P07949, G810R)

>  <pIC50>
8.25

$$$$
>  <compound>
CNc1cc(-c2ccc(N3CC4CC(C3)N4Cc3ccc(OC)nc3)nc2)c2c(C#N)cnn2c1 [Compound 47]

>  <experimental-system>
RET G810R kinase (Homo sapiens, UniProt P07949, G810R)

>  <pIC50>
8.05

$$$$
>  <compound>
COc1ccc(CN2C3CC2CN(c2cnc(-c4cc(N5CCOCC5)cn5ncc(C#N)c45)cn2)C3)cn1 [Compound 66]

>  <experimental-system>
RET G810R kinase (Homo sapiens, UniProt P07949, G810R)

>  <pIC50>
6.76

$$$$

Value lookup for pIC50; key = CCNc1cc(-c2cnc(N3CC4CC(C3)N4Cc3ccc(OC)nc3)cn2)c2c(C#N)cnn2c1 [Compound 29] 7.62

Value lookup for pIC50; key = COc1ccc(CN2C3CC2CN(c2ccc(-c4cc(NCC(C)C)cn5ncc(C#N)c45)cn2)C3)cn1 [Compound 67] 7.04

Value lookup for pIC50; key = COc1ccc(CN2C3CC2CN(c2ccc(-c4cc(NCCF)cn5ncc(C#N)c45)cn2)C3)cn1 [Compound 49] 8.73
